- TGT: Ribosomal protein S6 kinase alpha-4 (Homo sapiens) (UniProt O75676)
- Sequence (O75676 whole entry, looked up): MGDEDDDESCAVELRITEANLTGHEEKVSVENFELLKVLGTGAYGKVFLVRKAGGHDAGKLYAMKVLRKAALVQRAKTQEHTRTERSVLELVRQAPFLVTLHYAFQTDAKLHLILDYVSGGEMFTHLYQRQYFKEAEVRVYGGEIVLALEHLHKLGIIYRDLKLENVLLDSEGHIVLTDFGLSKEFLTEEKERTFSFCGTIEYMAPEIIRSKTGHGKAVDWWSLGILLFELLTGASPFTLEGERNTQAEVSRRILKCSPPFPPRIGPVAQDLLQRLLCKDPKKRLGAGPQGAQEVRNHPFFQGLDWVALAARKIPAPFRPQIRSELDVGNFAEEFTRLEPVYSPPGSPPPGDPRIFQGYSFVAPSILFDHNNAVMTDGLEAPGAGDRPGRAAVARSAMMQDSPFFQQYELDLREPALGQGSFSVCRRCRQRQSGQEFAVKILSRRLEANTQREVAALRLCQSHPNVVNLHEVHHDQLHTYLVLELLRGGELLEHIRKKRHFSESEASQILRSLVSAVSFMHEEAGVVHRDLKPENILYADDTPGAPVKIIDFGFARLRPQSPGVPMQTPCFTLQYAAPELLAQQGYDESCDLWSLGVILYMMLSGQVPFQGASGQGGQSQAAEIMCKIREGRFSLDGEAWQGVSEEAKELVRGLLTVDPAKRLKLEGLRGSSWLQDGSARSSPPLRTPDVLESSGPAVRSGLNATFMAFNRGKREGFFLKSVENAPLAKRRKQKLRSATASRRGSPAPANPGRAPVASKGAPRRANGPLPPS
- ASSAY_SETUP: at 0.1 µM
TEST_READOUT: inhibition (%)
Answers are plain numbers, in %.

>  <ENTRY_SMILES>
COc1ccc(-c2oc3ncnc(N)c3c2-c2ccc(NC(=O)Nc3cc(C(F)(F)F)ccc3F)cc2)cc1

>  <OBSERVED>
4.9

$$$$
>  <ENTRY_SMILES>
CCN1CCC(CC(=O)Nc2n[nH]c3nnc(-c4cccc(F)c4F)cc23)CC1

>  <OBSERVED>
2.22

$$$$
>  <ENTRY_SMILES>
CC(C)COC(=O)c1ccc2c(c1)/C(=C/Nc1ccc(S(N)(=O)=O)cc1)C(=O)N2

>  <OBSERVED>
5.45

$$$$
>  <ENTRY_SMILES>
c1cc(-c2cnn3nc(N4CCOCC4)ccc23)nc(NC2CC2)n1

>  <OBSERVED>
0.89

$$$$
>  <ENTRY_SMILES>
COc1ccc(-c2nn3ncccc3c2-c2ccnc(Nc3ccc4c(c3)OCCO4)n2)cc1

>  <OBSERVED>
1.07

$$$$
>  <ENTRY_SMILES>
CCn1c(-c2nonc2N)nc2c(C#CC(C)(C)O)nc(OC[C@H](N)c3ccccc3)cc21

>  <OBSERVED>
3.75

$$$$
>  <ENTRY_SMILES>
Cc1ccc2c(-c3ccnc(Nc4ccccc4)n3)c(-c3ccc(F)cc3)nn2n1

>  <OBSERVED>
0.97

$$$$
>  <ENTRY_SMILES>
Cc1cccc(Nc2ncc(-c3ccccc3)o2)c1

>  <OBSERVED>
1.23

$$$$

Count: 2. Required value per item: inhibition.
1. CNC(=O)c1cc(-c2ccc(F)cc2)cc(-c2ccc(S(=O)(=O)N3CCCC3)cc2)c1N
2. Fc1cccc(COc2ccc(Nc3ncnc4sc(-c5ccco5)cc34)cc2Cl)c1

**A:**
1. 1.23
2. 2.45

----------
- TGT: Mitogen-activated protein kinase 11 (Homo sapiens) (UniProt Q15759)
- Sequence (Q15759 whole entry): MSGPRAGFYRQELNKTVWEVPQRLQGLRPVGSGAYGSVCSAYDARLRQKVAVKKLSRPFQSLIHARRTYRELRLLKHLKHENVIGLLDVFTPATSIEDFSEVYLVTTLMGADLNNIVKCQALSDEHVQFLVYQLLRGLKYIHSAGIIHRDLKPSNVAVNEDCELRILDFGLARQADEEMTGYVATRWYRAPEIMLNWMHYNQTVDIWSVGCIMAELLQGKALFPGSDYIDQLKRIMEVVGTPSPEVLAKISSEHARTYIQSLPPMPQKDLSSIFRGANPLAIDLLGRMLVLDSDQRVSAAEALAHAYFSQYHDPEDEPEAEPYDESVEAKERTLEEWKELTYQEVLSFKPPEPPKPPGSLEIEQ
- ASSAY_SETUP: at 1 µM
TEST_READOUT: inhibition (%)
Numbers only, in %.

Some entries whose results are on file:
>  <ENTRY_SMILES>
Nc1nc(-c2ccc(F)cc2)c(-c2ccc3ncccc3n2)s1

>  <UNIT_STRING>
%

>  <OBSERVED>
33.1

$$$$
>  <ENTRY_SMILES>
CN1CCC(n2cnc(-c3ccc(F)cc3)c2-c2ccnc(N)n2)CC1

>  <UNIT_STRING>
%

>  <OBSERVED>
30.6

$$$$
>  <ENTRY_SMILES>
O=C(Nc1n[nH]c2cc(-c3ccc(F)cc3)ccc12)C1CC1

>  <UNIT_STRING>
%

>  <OBSERVED>
7.25

$$$$

Count: 5. Required value per item: inhibition.
1. CNC(=O)c1cc(-c2ccc(F)cc2)cc(-c2ccc(S(=O)(=O)N3CCCC3)cc2)c1N
2. c1ccc(-c2nc3n(c2-c2ccc4c(c2)OCO4)CCC3)nc1
3. Clc1ccc(-c2nn3ncccc3c2-c2ccnc(Nc3ccccc3)n2)cc1
4. COc1ccc(-c2cc3c(N)ncnc3o2)cc1
5. COc1cccc(-c2c[nH]c3c(N/N=C/c4ccncc4)ncnc23)c1

**A:**
1: 3.19; 2: 2.77; 3: 58.8; 4: -0.96; 5: 7.25

Count: 4. Required value per item: inhibition.
1. NS(=O)(=O)c1ccc(Nc2ncc(-c3ccccc3)o2)cc1
2. COc1ccc(CNC(=O)c2ccc(-c3cc(-c4nnc(C)o4)ccc3C)cc2)cc1
3. CCn1c(-c2nonc2N)nc2c(C#CC(C)(C)O)nc(OC[C@H](N)c3ccccc3)cc21
4. COc1cc2c(cc1Nc1nc(Nc3ccsc3C(N)=O)c3cc[nH]c3n1)N(C(=O)CN(C)C)CCC2(C)C

**A:**
1: 7.67; 2: 46.3; 3: 4.89; 4: 8.81

Recorded inhibition for COC(=O)Nc1nc2ccc(Oc3ccc(NC(=O)Nc4cccc(Cl)c4)cc3)cc2[nH]1 on Mitogen-activated protein kinase 11 (Homo sapiens) (UniProt Q15759) was 8.82

----------
- TGT: Mitogen-activated protein kinase 13 (Homo sapiens) (UniProt O15264)
- Sequence (O15264 whole entry): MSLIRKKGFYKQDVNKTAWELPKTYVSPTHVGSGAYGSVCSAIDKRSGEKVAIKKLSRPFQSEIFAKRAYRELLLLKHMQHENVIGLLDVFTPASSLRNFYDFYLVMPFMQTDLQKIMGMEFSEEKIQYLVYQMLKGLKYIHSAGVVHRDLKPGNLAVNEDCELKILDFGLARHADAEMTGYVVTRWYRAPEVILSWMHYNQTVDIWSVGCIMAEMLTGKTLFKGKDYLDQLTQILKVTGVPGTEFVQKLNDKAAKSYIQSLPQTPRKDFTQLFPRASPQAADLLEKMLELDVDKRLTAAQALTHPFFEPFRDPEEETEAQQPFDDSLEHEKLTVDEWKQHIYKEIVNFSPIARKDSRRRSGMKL
- ASSAY_SETUP: at 0.1 µM
Lab note: compare inhibition against 3%. Equal or greater, write fulfilled. Smaller, write not fulfilled.

Consider the worked cases shown below.
>  <ENTRY_SMILES>
CCN1CCC(CC(=O)Nc2n[nH]c3nnc(-c4cccc(F)c4F)cc23)CC1

>  <CLASS_ASSIGNMENT>
not fulfilled

$$$$
>  <ENTRY_SMILES>
CNC(=O)c1cc(-c2ccc(F)cc2)cc(-c2ccc(S(=O)(=O)N3CCCC3)cc2)c1N

>  <CLASS_ASSIGNMENT>
fulfilled

$$$$

**Q:** API: above_or_equal(metric=inhibition, cutoff=3%) for item COc1cc(/C=N/Nc2ncnc3[nH]ncc23)ccc1O
**A:** not fulfilled

----------
- TGT: Non-receptor tyrosine-protein kinase TNK1 (Homo sapiens)
- ASSAY_SETUP: at 1 µM
TEST_READOUT: inhibition (%)
Answers are plain numbers, in %.

Count: 5. Required value per item: inhibition.
1. c1ccc(COc2ccc(Nc3ncnc4ccc(-c5ccco5)cc34)cc2)cc1
2. CS(=O)(=O)CCNCc1coc(-c2ccc3ncnc(Nc4ccc(OCc5ccccc5)cc4)c3c2)c1
3. Cc1ccc2c(-c3ccnc(Nc4ccccc4)n3)c(-c3ccc(F)cc3)nn2n1
4. CCc1nn2ncccc2c1-c1ccnc(NC2CC2)n1
5. COc1ccc(-c2cc(-c3c[nH]nc3-c3ccccn3)ccn2)cc1

**A:**
1: 5.09; 2: 7.58; 3: 14.2; 4: 5.48; 5: 11.9

----------
- TGT: Ephrin type-B receptor 4 (Homo sapiens)
- ASSAY_SETUP: at 1 µM
The following ranges of inhibition define the classes used here: zone 1 = under 2%, zone 2 = from 2% up to 4%, zone 3 = 4% and over

**Q:** Which category fits this record: COc1cc2ncn(-c3cc(OCc4ccccc4C(F)(F)F)c(C(=O)N(C)C)s3)c2cc1OC
**A:** zone 1

**Q:** Which category fits this record: CN(C)CCOc1ccc(-c2nc(-c3ccncc3)c(-c3ccc4c(c3)CC/C4=N\O)[nH]2)cc1
**A:** zone 2

**Q:** Which category fits this record: COc1ccc2c(-c3ccnc(Nc4cccc(OC(F)(F)F)c4)n3)cnn2n1
**A:** zone 3

**Q:** Which category fits this record: CCn1c(-c2nonc2N)nc2ccccc21
**A:** zone 1

**Q:** Which category fits this record: N#Cc1c(NC(=O)c2ccc(F)cc2)sc2c1CCCC2
**A:** zone 1

----------
- TGT: SRSF protein kinase 3 (Homo sapiens)
- ASSAY_SETUP: at 1 µM
Hi there, I'd appreciate the recorded inhibition for every entry that follows.
Put your answer as a value accompanied by its unit after it.

>  <ENTRY_SMILES>
COc1ccc(-c2cc(-c3c[nH]nc3-c3ccccn3)ccn2)cc1

>  <inhibition>
0.75%

$$$$
>  <ENTRY_SMILES>
CCn1c(-c2nonc2N)nc2ccccc21

>  <inhibition>
1.24%

$$$$
>  <ENTRY_SMILES>
NC(=O)c1sc(-n2cnc3ccc(C(F)(F)F)cc32)cc1OCc1ccccc1Br

>  <inhibition>
-0.41%

$$$$
>  <ENTRY_SMILES>
N#Cc1c(NC(=O)c2ccc(F)cc2)sc2c1CCCC2

>  <inhibition>
0.88%

$$$$

Count: 2. Required value per item: inhibition.
1. COc1ccc2c(-c3ccnc(Nc4cccc(OC(F)(F)F)c4)n3)cnn2n1
2. c1ccc(-c2nc3n(c2-c2ccc4c(c2)OCO4)CCC3)nc1

**A:**
1. 2.71%
2. -1.14%

----------
- TGT: Tyrosine-protein kinase ABL2 (Homo sapiens) (UniProt P42684)
- Sequence (P42684 whole entry): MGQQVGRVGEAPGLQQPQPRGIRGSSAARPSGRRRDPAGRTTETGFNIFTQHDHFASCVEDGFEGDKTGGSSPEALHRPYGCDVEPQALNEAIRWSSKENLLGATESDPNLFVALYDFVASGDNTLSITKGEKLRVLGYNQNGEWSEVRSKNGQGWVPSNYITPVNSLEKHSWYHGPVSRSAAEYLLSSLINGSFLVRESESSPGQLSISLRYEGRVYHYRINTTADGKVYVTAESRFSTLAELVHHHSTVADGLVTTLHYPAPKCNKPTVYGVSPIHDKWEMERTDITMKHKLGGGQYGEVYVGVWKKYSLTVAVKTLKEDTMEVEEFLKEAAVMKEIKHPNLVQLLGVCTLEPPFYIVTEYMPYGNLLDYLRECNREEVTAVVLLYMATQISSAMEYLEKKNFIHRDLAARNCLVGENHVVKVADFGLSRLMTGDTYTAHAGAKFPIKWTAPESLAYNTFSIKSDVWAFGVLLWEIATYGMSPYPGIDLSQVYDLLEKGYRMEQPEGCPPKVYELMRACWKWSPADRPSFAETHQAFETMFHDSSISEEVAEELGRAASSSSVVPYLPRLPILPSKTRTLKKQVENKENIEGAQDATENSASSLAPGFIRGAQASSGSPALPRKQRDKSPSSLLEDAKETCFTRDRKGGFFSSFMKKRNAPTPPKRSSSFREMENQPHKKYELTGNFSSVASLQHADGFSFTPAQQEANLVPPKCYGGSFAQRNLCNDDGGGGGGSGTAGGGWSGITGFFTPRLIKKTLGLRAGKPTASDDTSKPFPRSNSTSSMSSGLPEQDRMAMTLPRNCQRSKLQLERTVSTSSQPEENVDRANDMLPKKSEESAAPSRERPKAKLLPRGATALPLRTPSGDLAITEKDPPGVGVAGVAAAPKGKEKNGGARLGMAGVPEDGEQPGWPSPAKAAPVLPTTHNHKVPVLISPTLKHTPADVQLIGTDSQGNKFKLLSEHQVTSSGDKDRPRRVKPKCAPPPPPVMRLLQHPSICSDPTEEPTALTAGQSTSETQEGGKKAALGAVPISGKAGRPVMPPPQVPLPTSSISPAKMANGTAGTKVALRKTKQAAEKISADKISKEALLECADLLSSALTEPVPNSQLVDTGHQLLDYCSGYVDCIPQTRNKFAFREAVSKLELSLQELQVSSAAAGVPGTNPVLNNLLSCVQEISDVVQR
- ASSAY_SETUP: at 0.1 µM
TEST_READOUT: inhibition (%)
Numbers only, in %.

>  <ENTRY_SMILES>
Fc1ccc(-c2nn3ncccc3c2-c2ccnc(Nc3ccc4c(c3)OCCO4)n2)cc1

>  <inhibition / %>
10.4

$$$$

Count: 2. Required value per item: inhibition.
1. COc1cc(/C=N/Nc2ncnc3[nH]ncc23)ccc1O
2. Nc1nc(-c2cccc(Cl)c2)c(-c2ccc3ncccc3n2)s1

**A:**
[15.6, 3.3]

Count: 2. Required value per item: inhibition.
1. Fc1cccc(COc2ccc(Nc3ncnc4sc(-c5ccco5)cc34)cc2Cl)c1
2. CN1CCC(n2cnc(-c3ccc(F)cc3)c2-c2ccnc(N)n2)CC1

**A:**
[4.36, 2.89]

----------
- TGT: MAP kinase-activated protein kinase 3 (Homo sapiens)
- ASSAY_SETUP: at 0.1 µM
- Description: GSK_PKIS: MAPKAPK3 mean inhibition at 0.1 uM [Nanosyn]
TEST_READOUT: inhibition (%)
Answers are plain numbers, in %.

Some entries whose results are on file:
>  <ENTRY_SMILES>
CC(=O)Nc1cccc(C#Cc2cncnc2Nc2ccc(OCc3cccc(F)c3)c(Cl)c2)c1

>  <inhibition (%)>
-4.18

$$$$
>  <ENTRY_SMILES>
CS(=O)(=O)CCNCc1ccc(-c2ccc3ncnc(Nc4ccc(OCc5ccccc5)c(C(F)(F)F)c4)c3c2)o1

>  <inhibition (%)>
8.97

$$$$
>  <ENTRY_SMILES>
CC(=O)NCc1cccc(C#Cc2cncnc2Nc2ccc(OCc3cccc(F)c3)c(Cl)c2)c1

>  <inhibition (%)>
-4.92

$$$$
>  <ENTRY_SMILES>
O=C(Nc1n[nH]c2cc(-c3ccc(F)cc3)ccc12)C1CC1

>  <inhibition (%)>
9.47

$$$$
>  <ENTRY_SMILES>
CCn1c(-c2nonc2N)nc2ccccc21

>  <inhibition (%)>
3.15

$$$$

Count: 4. Required value per item: inhibition.
1. Clc1ccc(-c2nn3ncccc3c2-c2ccnc(Nc3ccccc3)n2)cc1
2. COc1ccc2[nH]c3c4[nH]c5ccc(OC)cc5c4c4c(c3c2c1)C(=O)NC4=O
3. O=S(=O)(CCNCc1ccc(-c2ccc3ncnc(Nc4ccc(OCc5cccc(F)c5)c(Cl)c4)c3c2)o1)c1ccccc1
4. CCN1CCC(CC(=O)Nc2n[nH]c3nnc(-c4cccc(F)c4F)cc23)CC1

**A:**
1. 22.4
2. 5.01
3. 7.71
4. 1.74

Count: 4. Required value per item: inhibition.
1. CC(C)(CO)CNC(=O)c1ccc2c(c1)/C(=N/Nc1ccc(S(N)(=O)=O)cc1)C(=O)N2
2. COc1cccc(-n2ncc3c(N/N=C/c4ccc(F)cc4)ncnc32)c1
3. CNC(=O)c1cncc(/C=C/c2ccccc2Cl)c1
4. Fc1cccc(COc2ccc(Nc3ncnc4sc(-c5ccco5)cc34)cc2Cl)c1

**A:**
2.49
3.14
0.66
9.64

Count: 7. Required value per item: inhibition.
1. NC(=O)c1sc(-n2cnc3ccc(C(F)(F)F)cc32)cc1OCc1ccccc1Br
2. COc1cc2c(cc1Nc1nc(Nc3ccsc3C(N)=O)c3cc[nH]c3n1)N(C(=O)CN(C)C)CCC2(C)C
3. c1ccc(COc2ccc(Nc3ncnc4ccc(-c5ccco5)cc34)cc2)cc1
4. COc1ccc(-c2cc3c(N)ncnc3o2)cc1
5. Cc1ccc(O)cc1Nc1ccnc2cc(-c3ccccn3)ccc12
6. CCN(CC)S(=O)(=O)c1ccc(OC)c(Nc2ncc(-c3ccccc3)o2)c1
7. COC(=O)Nc1nc2ccc(S(=O)(=O)c3ccc(NC(=O)Nc4cc(C(F)(F)F)ccc4F)cc3)cc2[nH]1

**A:**
[4.27, -0.72, 1.07, -1.27, 7.63, 1.95, 1.8]
